# key: entry, value: growth
Test system: MDA-MB-231 breast
Assay: NCI-60 one-dose screen, 48 h (100 = growth as untreated, 0 = no growth, -100 = all killed)
Conditions: 10 µM
This is part of a sample that, as a whole, favours compounds with a hit. Of some 83,000 tested, about 20% had one in any assay.
Provide the reading as a plain figure in %.

CC(=O)N(O)c1ccc(/C=C/c2ccccc2)cc1 :: 48.7
COc1ccc(C2C=C(c3ccc(Cl)cc3)N=C3SC=CN32)c(Br)c1 (stereo not given) :: 47.7

Query: growth; subject: COC(=O)c1cnc2c(c1)Oc1ccc(Cl)cc1-c1cc(C)nn1-2
35

And then CCNC(=S)NN , what is it?
90.5

Same read-out for CC(C)OP(=O)(O)c1ncc(-c2ccc(C(F)(F)F)cc2)c(NC2CCCCCC2)n1 ?
89.9

How about this compound: COc1ccc(Nc2nc(NCc3ccccc3)c3ccccc3n2)cc1
41

Try this compound too: Clc1ccc(-c2nc(-c3cccs3)cn3ccnc23)cc1
66.5

Check O=C(COc1ccc(Cl)cc1Cl)Oc1coc(CSc2nc3ccccc3s2)cc1=O too.
86.8

// same read-out, input: COc1ccc2nc(-c3ccccc3)cc(C(C)=O)c2c1
89.5

Next compound: COc1ccc(Cn2cc3c(c2-c2ccccc2)CC(C)(C)c2cnoc2-3)cc1
57.6

Now consider O=C(Nc1ccc(OS(=O)(=O)Cc2ccccc2)cc1)C12CC3CC(CC(C3)C1)C2 .
78.7

Further, for C=CCn1c(C)nc2cc(Nc3nc(Nc4ccc5nc(C)n(CC=C)c5c4)c4ccccc4n3)ccc21 ?
-85.8

---

System: COLO 205 colon
Experiment: NCI-60 one-dose screen, 48 h
Settings: 10 µM
This is part of a sample that, as a whole, favours compounds with a hit. Of some 83,000 tested, about 20% had one in any assay. Calls of active or inactive are those of the source. How the source made its calls: active means growth percent below 10; inactive means the rest.
Answer with one of the outcomes y for active, n for inactive

Consider the following illustrative entries.
CCN(CC)CCOC(=O)c1ccc(N=Nc2ccc(O)c(OC)c2)cc1 :: n
CC1(C)CC(=O)c2c(nc3ccc(Cl)cc3c2-c2ccccc2)C1 :: n
O=C1CC[C@@H](C(=O)N[C@H]2CSSC[C@@H](C(=O)NCCc3ccccc3)NC(=O)[C@H](Cc3ccccc3)NC(=O)[C@@H]3CCCN3C(=O)[C@@H]3CCCN3C2=O)N1 :: n
O=[N+]([O-])c1ccc(Br)o1 :: n
COc1ccc(-c2cc(/C=C/C(=O)c3ccc(N)cc3)[nH]n2)cc1OC :: n

So what was the verdict on Fc1ccc2[nH]c3c(NCCCN4CCOCC4)ncnc3c2c1 in this test?
n

Now this one: O=c1ccc2nc(-c3ccccc3)nn(-c3ccccc3)c-2c1
y

---

Tested on: SF-268 CNS
Assay: NCI-60 one-dose screen, 48 h
Details: 10 µM
Compounds without any hit were thinned out: in the full panel of roughly 83,000, 20% have a hit. The source made the active and inactive calls. The calls were made as follows: active = growth percent below 10; inactive = the rest.
Hi! Could you answer with just one of these? true (active), false (inactive)

GET /call?item= Cc1cc(=O)oc2cc(OCc3cn(CC(O)CO)nn3)ccc12 (configuration not stated) returns the recorded outcome of this test.
false

Then this molecule: Cc1ccccc1C1=N[C@@H](Cc2ccccc2)C(=O)c2c(nc3ccccn23)N1
false

Query COc1ccc(-c2nc(-c3nc4ccc(C)cc4[nH]3)c3ccccn23)cc1 next
false

Try this molecule too: CC(=O)[C@H]1CC[C@H]2[C@@H]3CC[C@@H]4CC=C(C=O)C[C@]4(C)[C@H]3CC[C@]12C
false

Lookup CCOC(=O)[C@@H](Cc1ccccc1)NC(=O)c1[nH]c2ccc(Cl)cc2c(=O)c1C
false

For CCc1ccc(Nc2cc(C)nc3nc(C)nn23)cc1 then?
false

// same read-out, input: Cc1nc2cc(-n3c(-c4ccc(F)cc4)nc4ccccc4c3=O)ccc2n1Cc1ccccc1
true

And what about the molecule CC(C)c1[nH]nc2c(NCc3ccc(-c4ccccn4)cc3)nc(SCCN(C)C)nc12 ?
true

And for O=C1/C(=C/c2ccc(O)cc2)Cc2ccc(Cl)cc21 ?
false

---

Tested on: OVCAR-5 ovarian
Assay: NCI-60 one-dose screen, 48 h (100 = growth as untreated, 0 = no growth, -100 = all killed)
Conditions: 10 µM
Protocol: Growth inhibition of the OVCAR-5 human tumor cell line is measured as a screen for anti-cancer activity. Cells are grown in 96 well plates and exposed to the test compound for 48 hours. Compounds are tested at a single concentration, which is 10^-5 M for most compounds. The reported endpoint is percent growth (GI% or GIPRCNT), where numbers from 0 - 100% represent growth inhibition, and numbers from -100% - 0 represent cell death. For example, a value of 40 represents 60% growth inhibition. […]
About 83,000 compounds went through this panel and 20% of them were active in at least one assay; those are over-represented in the sample as a whole.
Quick list: growth per entry.
Value expressed in %; do not type the unit.

Value lookup for growth; key = O=C(Nc1cccc(C(F)(F)F)c1)C(Cl)Cl
105

Can you check COc1cccc2c1O/C(=C\c1ncc([N+](=O)[O-])n1C)C2=O next?
-9.04

Try COc1ccc(-c2nnc(COc3ccc(NC(=O)Nc4cccc(C(F)(F)F)c4)cc3F)o2)cc1 next.
82.5

One more compound: COc1cc(-c2cc(-c3ccc(C)cc3)nc3nc(N)[nH]c(=O)c23)ccc1Oc1ccnc2cc(Cl)ccc12
115

Also need Cc1cc(O)c(C2=NN(c3ccc(S(N)(=O)=O)cc3)C(c3ccc(N(C)C)cc3)C2)c(C)c1Cl (stereo unspecified) , thanks.
96.8

Proceed to CCOC(=O)Nc1ccc2c(c1)C(=O)N(CC)c1ccccc1O2
74

Field entry: O=S(=O)(O)C1(O)CCCCC1
90.5

Next entry: COc1cc(C2CC(=O)Nc3c2c(C)nn3-c2nc3ccccc3[nH]2)cc(OC)c1O (stereo unspecified)
112

Field entry: O=[N+]([O-])c1ccc(-c2nc(Cl)c3c(n2)CCCC3)o1
103

---

Test system: RPMI-8226 leukemia
Test: NCI-60 one-dose screen, 48 h (100 = growth as untreated, 0 = no growth, -100 = all killed)
Details: 10 µM
Compounds without any hit were thinned out: in the full panel of roughly 83,000, 20% have a hit.
Use 90% as the dividing line for growth, with the line itself on the fulfilled side and lower values as not fulfilled.

Here are 4 compounds together with their reported answers.
O=C(N/N=c1/ccoc2cccnc12)N1CCN(c2ncccn2)CC1 :: not fulfilled
O=[N+]([O-])c1ccc(Br)o1 :: fulfilled
CC(C)c1[nH]nc2c(NCc3ccc(-c4ccccn4)cc3)nc(SCCN(C)C)nc12 :: not fulfilled
COc1cc(C2CC(=O)Nc3c2c(C)nn3-c2nc3ccccc3[nH]2)cc(OC)c1O (stereo unspecified) :: not fulfilled

Next compound, please.
Check this compound for growth at or above 90%: Cc1ncc([N+](=O)[O-])n1CCOc1ccc(C(=O)/C=C/c2ccc(C(F)(F)F)cc2)cc1
not fulfilled

---

System: NCI/ADR-RES ovarian
Test: NCI-60 one-dose screen, 48 h (100 = growth as untreated, 0 = no growth, -100 = all killed)
Conditions: 10 µM
This is part of a sample that, as a whole, favours compounds with a hit. Of some 83,000 tested, about 20% had one in any assay. Active and inactive are the calls of the source. How the source made its calls: active means growth percent below 10; inactive means the rest.
Measured growth values are reported for all entries that follow.

O=C1/C(=C/c2ccc(O)cc2)Oc2ccc(Cl)cc21 :: 87.3% (inactive)
S=c1c2ncccc2c(-c2ccccn2)nn1Cc1ccccn1 :: 103% (inactive)
O=C(Nc1cccc(-c2nc3ccccc3[nH]2)c1)c1cccc(NC(=O)c2ccco2)c1 :: 84.9% (inactive)
Cc1cc(C)c2c(Nc3ncnc4c3sc3nc(C)cc(C)c34)n[nH]c2n1 :: 100% (inactive)
COc1ccc(-c2nnc(SCC(=O)c3ccccc3)o2)cc1 :: 91.9% (inactive)

Entry under review: CCCCOCCOCCOCc1cc2c(cc1Br)OCO2 . Reported growth?
111% (inactive)

Another molecule to look at: COc1ccc(-c2ccc(-c3ccc(C(=N)N)c(F)c3)s2)cc1
-51.3% (active)

---

Test system: SR leukemia
Assay: NCI-60 one-dose screen, 48 h (100 = growth as untreated, 0 = no growth, -100 = all killed)
Conditions: 10 µM
This is part of a sample that, as a whole, favours compounds with a hit. Of some 83,000 tested, about 20% had one in any assay.
So basically, if growth comes in under 40% it's condition met, and if it's 40% or more it's condition not met.

Cc1ccc(Cl)cc1Nc1nc(C(F)(F)F)ccc1C(=O)N/N=C/c1c(Cl)cccc1Cl :: condition not met
CC(=O)O[C@H]1CC[C@@]2(C)[C@@H](CC[C@@H]3[C@@H]2CC[C@]2(C)C=C(C=O)C[C@@H]32)C1 :: condition met
CC(C)(C)CC(C)(C)c1ccc(O)c(Cc2ccc(Cl)cc2Cl)c1 :: condition met
CC(=O)OC1Oc2ccccc2-c2oc(=O)c(-c3cc(=O)oc4cc(O)ccc34)cc21 (stereo not given) :: condition met
Cc1cnc(C=O)c2cccc([N+](=O)[O-])c12 :: condition met
Oc1ccc(/C=N\Nc2ccccn2)c(O)c1 :: condition met
NC1CCC(Nc2nc(NCc3ccc(-c4cccs4)nc3)c3ncn(C4CCCC4)c3n2)CC1 (stereo not given) :: condition met
Cc1noc(C)c1-c1ccc2nc(NC(=O)[C@H]3CCN(C#N)C3)cn2c1 :: condition not met
O=c1cc(CSc2nnc(-c3ccccc3)n2-c2ccc(F)cc2)c2ccc3ccccc3c2o1 :: condition not met

Below: the item to evaluate.
Bench note: check whether CS(=O)(=O)Nc1ccc([N+](=O)[O-])cc1Oc1ccccc1 shows growth below 40%
condition not met

Attribution: PubChem BioAssay (NCI)
